System: CAL-51 cells
test.protocol: CAL-51 Cell Proliferation Assay
Assay type: cell-based
experimental.parameters: minimal percent of DMSO control observed in the concentrations tested (Ymin-obs), 120 hours
I'd appreciate it if you could label each record using CAL-51 Prolif Ymin and these ranges: band 1 = under 30, band 2 = from 30 up to 40, band 3 = 40 and over

1. O=C1CC[C@H](N2Cc3cc(Cn4ncc5c(-c6ncc(OC(F)(F)F)cc6Cl)cc(N6CC(F)C6)nc54)ccc3C2=O)C(=O)N1
band 1
2. O=C1CCC(N2Cc3cc(Cn4ncc5c(-c6ncc(OCC(F)(F)F)cc6Cl)cc(N6CC(F)C6)nc54)ccc3C2=O)C(=O)N1 (stereo not shown)
band 1
3. O=C1CC[C@H](N2Cc3c(ccc(Cn4ncc5c(-c6ncc(F)cc6Cl)cc(N6CC(F)C6)nc54)c3F)C2=O)C(=O)N1 (single isomer, unassigned)
band 2
4. COc1cc(C2CC2)cnc1-c1cc(N2CC(F)C2)nc2c1cnn2Cc1ccc2c(c1)CN(C1CCC(=O)NC1=O)C2=O (stereo not shown)
band 3
5. CCOc1ccc(Cl)c(-c2cc(N3CC(F)C3)nc3c2cnn3Cc2ccc3c(c2)CN([C@H]2CCC(=O)NC2=O)C3=O)n1
band 3

Task: Band for the recorded CAL-51 Prolif Ymin of `CCOc1cnc(-c2cc(N3CC(F)C3)nc3c2cnn3Cc2ccc3c(c2)CN([C@H]2CCC(=O)NC2=O)C3=O)c(C(F)(F)F)c1` ?
Output: band 1

Task: Returns: class label. Input: O=C1CCC(N2Cc3cc(Cn4ncc5c(-c6ncccc6Br)cc(N6CC(F)C6)nc54)ccc3C2=O)C(=O)N1 (stereo not shown)
Output: band 2

----------
measured.on: FAK (Homo sapiens)
Construct: homozygous knock-in of a HiBiT tag (Promega Corporation, Madison, WI) to the C-terminus of the FAK gene in its natural genomic locus; endogenous in cells; host or cells: JHH-4-FAK-HiBiT clone d01 (CRISPR-Cas9 knock-in at the endogenous locus)
test.protocol: FAK-HiBiT Degradation Assay
Assay type: cell-based
experimental.parameters: lower limit of the four parameter fit (value A); Ymax derived using DMSO control; JHH-4-FAK-HiBiT cells, two hours
endpoint.name: FAK HiBiT Ymin
Could you respond with only the numeric value?

1) N#Cc1ccc(-c2cc(N3CC(F)C3)nc3c2cnn3Cc2ccc3c(c2)CN(C2CCC(=O)NC2=O)C3=O)c(F)c1 (stereo not shown)
11.11

FAK HiBiT Ymin recorded for this molecule, CN(C)c1cc(-c2ccc(C#N)cc2Cl)c2cnn(Cc3ccc4c(c3)CN(C3CCC(=O)NC3=O)C4=O)c2n1 (stereo not shown) , is 7.50

Per the records, this molecule ( CN(C)c1nc(-c2ccc(C#N)cc2Cl)c2ccn(Cc3ccc4c(c3)CN(C3CCC(=O)NC3=O)C4=O)c2n1 (stereo not shown) ) has FAK HiBiT Ymin equal to 2.64

Record `O=C1CC[C@H](N2Cc3cc(Cn4ncc5c(-c6ncc(Cl)cc6F)cc(N6CC(F)C6)nc54)ccc3C2=O)C(=O)N1` , field FAK HiBiT Ymin: 17.06

----------
Item-by-item account of DC50
measured.on: FAK (Homo sapiens, UniProt Q05397)
Construct: homozygous knock-in of a HiBiT tag (Promega Corporation, Madison, WI) to the C-terminus of the FAK gene in its natural genomic locus; endogenous in cells; host or cells: JHH-4-FAK-HiBiT clone d01 (CRISPR-Cas9 knock-in at the endogenous locus)
Sequence (Q05397 whole entry): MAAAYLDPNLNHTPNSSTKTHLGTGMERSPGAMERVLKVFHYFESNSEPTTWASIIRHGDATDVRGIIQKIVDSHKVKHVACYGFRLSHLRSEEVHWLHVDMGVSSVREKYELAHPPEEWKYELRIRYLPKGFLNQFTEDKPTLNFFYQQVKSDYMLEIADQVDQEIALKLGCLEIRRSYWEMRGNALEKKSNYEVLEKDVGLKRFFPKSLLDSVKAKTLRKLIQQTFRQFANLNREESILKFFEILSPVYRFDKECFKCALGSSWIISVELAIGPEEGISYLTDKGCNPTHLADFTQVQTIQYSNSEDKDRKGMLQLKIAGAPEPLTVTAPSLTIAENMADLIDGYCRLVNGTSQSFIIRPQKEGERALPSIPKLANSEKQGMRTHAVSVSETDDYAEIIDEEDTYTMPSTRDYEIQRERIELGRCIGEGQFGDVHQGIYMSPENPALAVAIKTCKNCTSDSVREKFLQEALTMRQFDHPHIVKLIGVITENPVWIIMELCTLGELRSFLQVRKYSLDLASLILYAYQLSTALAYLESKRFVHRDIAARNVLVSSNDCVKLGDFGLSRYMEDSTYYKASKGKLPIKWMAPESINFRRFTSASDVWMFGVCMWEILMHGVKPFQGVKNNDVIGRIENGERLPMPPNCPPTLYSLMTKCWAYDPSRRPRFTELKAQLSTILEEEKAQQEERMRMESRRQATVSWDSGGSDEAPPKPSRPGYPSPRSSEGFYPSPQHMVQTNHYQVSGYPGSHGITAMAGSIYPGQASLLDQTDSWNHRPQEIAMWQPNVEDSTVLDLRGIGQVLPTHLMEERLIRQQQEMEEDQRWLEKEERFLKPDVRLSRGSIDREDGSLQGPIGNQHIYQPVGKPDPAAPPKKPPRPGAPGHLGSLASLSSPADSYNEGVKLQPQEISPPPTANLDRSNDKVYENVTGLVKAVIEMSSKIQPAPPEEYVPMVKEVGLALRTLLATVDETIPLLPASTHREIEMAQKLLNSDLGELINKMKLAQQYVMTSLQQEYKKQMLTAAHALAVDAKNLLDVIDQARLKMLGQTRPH
test.protocol: FAK-HiBiT Degradation Assay
Assay type: cell-based
experimental.parameters: JHH-4-FAK-HiBiT clone d01 cells; two hours incubation; 10-point dose response, 3-fold dilution starting at 1 μM; Nano-Glo HiBiT luminescence; read-out: FAK HiBiT EC50

Worked examples follow.
1) O=C1CCC(N2Cc3cc(Cn4ncc5c(-c6ncc(C(F)(F)F)cc6Cl)cc(N[C@@H]6CCOC6)nc54)ccc3C2=O)C(=O)N1 (stereo partly shown)
≥ 1000 nM
2) O=C1CC[C@H](N2Cc3cc(Cn4ncc5c(-c6ccc(F)cc6F)cc(N6CC[C@H](O)C6)nc54)ccc3C2=O)C(=O)N1
19.9 nM
3) CC(C)Nc1cc(-c2ccc(C#N)cc2F)c2cnn(Cc3ccc4c(c3)CN(C3CCC(=O)NC3=O)C4=O)c2n1 (stereo not shown)
14.1 nM
4) CCOc1ccc(Cl)c(-c2cc(N3CC(F)C3)nc3c2cnn3Cc2ccc3c(c2)CN([C@H]2CCC(=O)NC2=O)C3=O)n1
45.8 nM
5) CCOc1ccc(-c2cc(N3CC[C@](C)(O)C3)nc3c2cnn3Cc2ccc3c(c2)CN(C2CCC(=O)NC2=O)C3=O)c(Cl)c1 (stereo partly shown)
20 nM
6) O=C1CC[C@@H](N2Cc3cc(Cn4ncc5c(-c6ncc(C7COC7)cc6Cl)cc(N6CC(F)C6)nc54)ccc3C2=O)C(=O)N1 (single isomer, unassigned)
213 nM

What the record says about N#Cc1ccc(-c2cc(N3CCC3)nc3c2cnn3Cc2ccc3c(c2)CN(C2CCC(=O)NC2=O)C3=O)c(Cl)c1 (stereo not shown) : DC50 is 3.43 nM

Reported DC50 of N#Cc1ccc(-c2cc(N3CCC3)nc3c2cnn3Cc2ccc3c(n2)CN(C2CCC(=O)NC2=O)C3=O)c(Cl)c1 (stereo not shown) : 29.2 nM

The reported value for `CC(C)Oc1cnc(-c2cc(N3CC(F)C3)nc3c2cnn3Cc2ccc3c(c2)CN([C@H]2CCC(=O)NC2=O)C3=O)c(Cl)c1` in terms of DC50 is 2.47 nM

Briefly, DC50 measured for O=C1CCC(N2Cc3cc(Cn4ncc5c(-c6nnccc6C(F)(F)F)cc(N6CC(F)C6)nc54)ccc3C2=O)C(=O)N1 (stereo not shown) : ≥ 1000 nM

For `O=C1CC[C@H](N2Cc3cc(Cn4ncc5c(-c6ncc(C(F)(F)F)cc6Cl)cc(N6CCOCC6)nc54)ccc3C2=O)C(=O)N1` the compound record lists DC50 as ≥ 1000 nM

compound Cc1ncccc1-c1cc(N2CC(F)C2)nc2c1cnn2Cc1ccc2c(c1)CN(C1CCC(=O)NC1=O)C2=O (stereo not shown) , DC50 observed: ≥ 1000 nM

Per the records, this compound ( O=C1CCC(N2Cc3cc(Cn4ncc5c(-c6ncc(Cl)cc6Cl)c(F)c(N6CC(F)C6)nc54)ccc3C2=O)C(=O)N1 (stereo not shown) ) has DC50 equal to 0.55 nM
